Molecular target: PD-1/PD-L1 interaction (Homo sapiens)
Construct: Tag1 or Tag2 (undisclosed kit tag); purchased Cisbio
Assay: Cisbio PD-1/PD-L1 Homogeneous Time-Resolved Fluorescence (HTRF) binding assay
Conditions: Table 10; same result in μM; P1 and P2 are different isomers; read-out: Reported IC50
Reported IC50 values are given for each entry in this list.
Numbers only here, please. The scale is µM.

Sample answers from the record:
Query block: So what IC50 did COc1cc(C(=O)N2C[C@H](C)N(Cc3nsc(NC[C@@H]4CCCN4Cc4ccc(Br)cc4)n3)C[C@@H]2C)cc(OC)c1OC get with PD-1/PD-L1 interaction (Homo sapiens)?
Result block: 0.021

Query block: So what IC50 did COc1cc(C(=O)N2CCN(Cc3nsc(NC[C@@H]4CCCN4Cc4ccc(Br)cc4)n3)CC2)cc(OC)c1OC get with PD-1/PD-L1 interaction (Homo sapiens)?
Result block: 0.015

As a next step, examine the molecule that follows.
Query block: So what IC50 did COc1cc(C(=O)N2CCN(Cc3nsc(NC[C@@H]4CCCN4Cc4ccc(Br)c(F)c4)n3)CC2)cc(OC)c1OC get with PD-1/PD-L1 interaction (Homo sapiens)?
Result block: 0.015

====

Biological target: PD-1/PD-L1 interaction (Homo sapiens)
Construct: Tag1 or Tag2 (undisclosed kit tag); purchased Cisbio
Experiment: Cisbio PD-1/PD-L1 Homogeneous Time-Resolved Fluorescence (HTRF) binding assay
Details: Table 10; * n = 7, median; P1 and P2 are different isomers; read-out: Reported IC50
Reported pIC50 values are given for each entry in this list.
When answering, recall that pIC50 equals minus log10 of the concentration in mol/L, and write that number alone.

Query block: Which pIC50 value belongs to Cc1ccc(C(=O)N2CCN(Cc3nsc(NC[C@@H]4CCCN4Cc4ccc(Br)cc4)n3)CC2)cc1 ?
Result block: 6.19

Continuing:
Query block: Which pIC50 value belongs to COc1cc(C(=O)N2CCN(Cc3nsc(NC[C@@H]4C[C@@H](O)CN4Cc4ccc(Br)cc4)n3)CC2)cc(OC)c1OC ?
Result block: 7.92

Query block: Which pIC50 value belongs to COc1cc(C(=O)N2CCN(Cc3cc(NC[C@@H]4CCCN4Cc4ccc(Br)cc4)sn3)CC2)cc(OC)c1OC ?
Result block: 7.55

Query block: Which pIC50 value belongs to COc1cc(C(=O)N2CCN(Cc3nsc(NC[C@@H]4CCCN4Cc4ccc(C(F)(F)F)cc4)n3)CC2)cc(OC)c1OC ?
Result block: 7.74

Query block: Which pIC50 value belongs to O=C(c1ccc(=O)[nH]c1)N1CCN(Cc2nsc(NC[C@@H]3CCCN3Cc3ccc(Br)cc3)n2)CC1 ?
Result block: 6.36

Query block: Which pIC50 value belongs to COc1cc(C(=O)N2CCN(Cc3nsc(NC[C@@H]4CCCN4Cc4ccc(Br)c(F)c4)n3)CC2)cc(OC)c1OC ?
Result block: 7.82

Query block: Which pIC50 value belongs to COc1cc(C(=O)N2CCN(Cc3nsc(NC[C@@H]4CCCN4Cc4ccc(Br)cc4)n3)CC2)cc(OC)c1OC ?
Result block: 7.82

Query block: Which pIC50 value belongs to COc1cc(C(=O)N2C[C@H](C)N(Cc3nsc(NC[C@@H]4C[C@@H](O)CN4Cc4ccc(Br)cc4)n3)C[C@@H]2C)cc(OC)c1OC ?
Result block: 7.48

Query block: Which pIC50 value belongs to COc1cc(C(=O)N2CCN(Cc3nsc(NC[C@@H]4CCCCN4Cc4ccc(Br)cc4)n3)CC2)cc(OC)c1OC ?
Result block: 7.02

Query block: Which pIC50 value belongs to Cn1cc(C(=O)N2CCN(Cc3nsc(NC[C@@H]4CCCN4Cc4ccc(Br)cc4)n3)CC2)ccc1=O ?
Result block: 6.67

====

Biological target: PD-1/PD-L1 interaction (Homo sapiens, UniProt Q9NZQ7)
Construct: Tag1 or Tag2 (undisclosed kit tag); purchased Cisbio
Sequence (Q9NZQ7 19-238 limits assumed): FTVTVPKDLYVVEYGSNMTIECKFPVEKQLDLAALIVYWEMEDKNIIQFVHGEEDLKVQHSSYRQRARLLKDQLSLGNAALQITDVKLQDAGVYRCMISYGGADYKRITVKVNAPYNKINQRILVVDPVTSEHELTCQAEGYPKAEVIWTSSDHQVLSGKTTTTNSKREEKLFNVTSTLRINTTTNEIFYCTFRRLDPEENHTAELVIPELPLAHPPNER
Assay: Cisbio PD-1/PD-L1 Homogeneous Time-Resolved Fluorescence (HTRF) binding assay
Conditions: Table 9; read-out: Reported IC50
assay_readout: IC50

Sample answers from the record:
Query block: Which IC50 value belongs to COc1cc(C(=O)N2CCN(Cc3csc(NC[C@@H]4CCCN4Cc4ccncn4)n3)CC2)cc(OC)c1OC [Compound A312] ?
Result block: > 50 µM

Query block: Which IC50 value belongs to COc1cc(CN2CCN(Cc3csc(NCC4CCCN4C(=O)c4ccc(Br)cc4)n3)CC2)cc(OC)c1OC (stereo not shown) [Compound A605] ?
Result block: > 50 µM

Query block: Which IC50 value belongs to COc1cc(CN2CCN(Cc3csc(NCC4CCCN4Cc4ccccc4)n3)CC2)cc(OC)c1OC (stereo not shown) [Compound A505] ?
Result block: > 50 µM

Query block: Which IC50 value belongs to COc1cc(CN2CCN(Cc3csc(NCC4CCCN4CC4CC4)n3)CC2)cc(OC)c1OC (stereo not shown) [Compound A506] ?
Result block: > 50 µM

Query block: Which IC50 value belongs to COc1cc(C(=O)N2CCN(Cc3csc(N(C)C[C@@H]4CCCN4Cc4ccc(Br)cc4)n3)CC2)cc(OC)c1OC [Compound A606] ?
Result block: > 50 µM

Continuing:
Query block: Which IC50 value belongs to O=C(c1ccc(Cl)cc1)N1CCN(Cc2csc(NCC3CCCN3Cc3ccc(Br)cc3)n2)CC1 (stereo not shown) [Compound B410] ?
Result block: > 5 µM

Query block: Which IC50 value belongs to Cn1cc(C(=O)N2CCN(Cc3csc(NC[C@@H]4CCCN4Cc4ccc(Br)cc4)n3)CC2)ccc1=O [Compound B414] ?
Result block: > 5 µM

====

Target: PD-1/PD-L1 interaction (Homo sapiens, UniProt Q9NZQ7)
Construct: Tag1 or Tag2 (undisclosed kit tag); purchased Cisbio
Assay: Cisbio PD-1/PD-L1 Homogeneous Time-Resolved Fluorescence (HTRF) binding assay
Conditions: Table 10; * n = 7, median; P1 and P2 are different isomers; read-out: Reported IC50
Returns: string. Value is 1.0 if measured IC50 is below 0.02 µM, and 0.0 if it is greater than or equal to it.

Query block: Bench note: check whether COc1cc(C(=O)N2CCN([C@@H](C)c3nsc(NC[C@@H]4CCCN4Cc4ccc(Br)cc4)n3)CC2)cc(OC)c1OC shows IC50 below 0.02 µM
Result block: 1.0

Query block: Bench note: check whether COc1cc(C(=O)N2CCN([C@H](C)c3nsc(NC[C@@H]4CCCN4Cc4ccc(Br)cc4)n3)CC2)cc(OC)c1OC shows IC50 below 0.02 µM
Result block: 1.0

Query block: Bench note: check whether COc1cc(C(=O)N2C[C@H](C)N(Cc3nsc(NC[C@@H]4CCCN4Cc4ccc(Br)cc4)n3)C[C@@H]2C)cc(OC)c1OC shows IC50 below 0.02 µM
Result block: 0.0

Query block: Bench note: check whether O=C(c1ccccc1)N1CCN(Cc2nsc(NC[C@@H]3CCCN3Cc3ccc(Br)cc3)n2)CC1 shows IC50 below 0.02 µM
Result block: 0.0

Continuing:
Query block: Bench note: check whether COc1cc(C(=O)N2CCN(Cc3nsc(NC[C@@H]4CCCN4Cc4ccc(Cl)cc4)n3)CC2)cc(OC)c1OC shows IC50 below 0.02 µM
Result block: 1.0

Hello, the source for this data is patent US20230219942A1, in case you need it.
